The reported numbers originate from patent US20230125550A1.

target_or_test_system: T1, recombinant human CD123-Fc (human, UniProt P26951 19-305)
T1 construct: not shown: Fc part of CD123-Fc
T1 sequence: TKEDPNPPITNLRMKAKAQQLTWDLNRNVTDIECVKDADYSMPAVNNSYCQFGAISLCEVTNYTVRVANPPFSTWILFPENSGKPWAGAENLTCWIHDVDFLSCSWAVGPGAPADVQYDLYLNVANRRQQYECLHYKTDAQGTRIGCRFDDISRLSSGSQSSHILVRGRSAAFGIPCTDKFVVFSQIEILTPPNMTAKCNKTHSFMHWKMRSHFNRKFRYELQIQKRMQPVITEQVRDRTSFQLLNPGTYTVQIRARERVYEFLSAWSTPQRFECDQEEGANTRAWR
method_description: phage ELISA, A450 target/A450 IgG1-Fc
Mark condition met only when ELISA_avg stays strictly below 4 ratio. Values equal to the cut-off are condition not met.

{"binder": "SEQ ID NO 697 (designed binder) MGSWVEFWHRLDAIKARLNALGGSEAELAAFEKEIAAFESELQAYKGKGNPEVEDLRWYAADFRLILQAYRHN", "class_name": "condition met"}

### Prompt Check if ELISA_avg falls below 4 ratio for SEQ ID NO 666 (designed binder) MGSWGEFMDRLEAIDYRLWALGGSEAELAWFESDIAEFEQELQMYKGKGNPEVEALWDEAMAIRDELFAYRHN .
### Response condition not met

### Prompt Check if ELISA_avg falls below 4 ratio for SEQ ID NO 668 (designed binder) MGSWYEFADRLDAIMDRLVALGGSEAELAYFEWEIAAFEEFLQMYKGKGNPEVEALDEEAEAIKDELMAYRHN .
### Response condition met

### Prompt Check if ELISA_avg falls below 4 ratio for SEQ ID NO 654 (designed binder) MGSWREFHDRLFAIDGRLWALGGSEAELANFEWDIADFEFELQDYKGKGNPEVEALSWEADAIMQELGAYRHN .
### Response condition not met
